Attribute: EC90
target.desc: UniProt Q5L478
Sequence (Q5L478 as listed by the source): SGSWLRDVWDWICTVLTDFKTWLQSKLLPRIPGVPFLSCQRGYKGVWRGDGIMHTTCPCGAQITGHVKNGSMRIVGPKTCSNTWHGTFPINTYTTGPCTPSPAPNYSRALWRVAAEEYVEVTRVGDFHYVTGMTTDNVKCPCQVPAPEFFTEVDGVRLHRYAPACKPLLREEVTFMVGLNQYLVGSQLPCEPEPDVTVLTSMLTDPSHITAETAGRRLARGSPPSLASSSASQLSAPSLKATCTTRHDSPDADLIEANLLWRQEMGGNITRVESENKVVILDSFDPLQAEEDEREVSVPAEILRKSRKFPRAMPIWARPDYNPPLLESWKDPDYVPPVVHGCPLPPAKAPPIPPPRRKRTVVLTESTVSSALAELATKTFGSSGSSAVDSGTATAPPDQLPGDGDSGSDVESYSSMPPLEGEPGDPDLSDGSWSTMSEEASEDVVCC
assay.notes: Inhibition of HCV GT2b NS5A assessed as suppression of replicon RNA level by real-time PCR analysis
condition.set: Hepatitis C virus subtype 2b
reported.metric: EC90 (µM)

compound	target.desc	reported.metric	reading.unit	numeric.readout
COC(=O)N[C@H](C(=O)N1CCC[C@H]1c1ncc(-c2cc(F)c3c(c2)OC(c2cccc(OC)c2)n2c-3cc3cc(-c4cnc([C@@H]5CCCN5C(=O)[C@@H](NC(=O)OC)C(C)C)[nH]4)ccc32)[nH]1)C(C)C (some centres undefined)	UniProt Q5L478	EC90	µM	0.006
COC(=O)N[C@H](C(=O)N1C[C@H](F)C[C@H]1c1ncc(-c2ccc3c(c2)OC(c2ccccc2)n2c-3cc3cc(-c4cnc([C@@H]5C[C@@H](F)CN5C(=O)[C@@H](NC(=O)OC)C(C)C)[nH]4)ccc32)[nH]1)C(C)C (mixture of isomers)	UniProt Q5L478	EC90	µM	0.063
COC(=O)N[C@H](C(=O)N1CCC[C@H]1c1ncc(-c2ccc3c(c2)cc2n3C(c3cccc(OC(F)F)c3)Oc3cc(-c4cnc([C@@H]5C[C@@H](F)CN5C(=O)[C@@H](NC(=O)OC)C(C)C)[nH]4)cc(F)c3-2)[nH]1)C(C)C (some centres undefined)	UniProt Q5L478	EC90	µM	0.022
COC(=O)N[C@H](C(=O)N1CCC[C@H]1c1ncc(-c2cc(F)c3c(c2)O[C@@H](c2ccccc2)n2c-3c(Cl)c3cc(-c4cnc([C@@H]5CCCN5C(=O)[C@@H](NC(=O)OC)C(C)C)[nH]4)ccc32)[nH]1)C(C)C	UniProt Q5L478	EC90	µM	0.042
CCOc1cccc(C2Oc3cc(-c4cnc([C@@H]5CCCN5C(=O)[C@@H](NC(=O)OC)C(C)C)[nH]4)ccc3-c3cc4cc(-c5cnc([C@@H]6CCCN6C(=O)[C@@H](NC(=O)OC)C(C)C)[nH]5)ccc4n32)c1 (some centres undefined)	UniProt Q5L478	EC90	µM	0.022
COC(=O)N[C@H](C(=O)N1CCC[C@H]1c1ncc(-c2cc(F)c3c(c2)O[C@@H](c2ccccc2)n2c-3cc3cc(-c4cnc([C@@H]5CCCN5C(=O)[C@@H](NC(=O)OC)C(C)C)[nH]4)ccc32)[nH]1)C(C)C	UniProt Q5L478	EC90	µM	0.018
COC(=O)N[C@H](C(=O)N1CCC[C@H]1c1ncc(-c2ccc3c(c2)OC(c2cccc(OC(C)C)c2)n2c-3cc3cc(-c4cnc([C@@H]5CCCN5C(=O)[C@@H](NC(=O)OC)C(C)C)[nH]4)ccc32)[nH]1)C(C)C (some centres undefined)	UniProt Q5L478	EC90	µM	0.145
COC(=O)N[C@H](C(=O)N1CCC[C@H]1c1ncc(-c2ccc3c(c2)cc2n3C(c3ccccc3)Oc3cc(-c4cnc([C@@H]5C[C@@H](F)CN5C(=O)[C@@H](NC(=O)OC)C(C)C)[nH]4)cc(F)c3-2)[nH]1)C(C)C (mixture of isomers)	UniProt Q5L478	EC90	µM	0.016
COC(=O)N[C@H](C(=O)N1CCC[C@H]1c1ncc(-c2ccc3c(c2)OC(c2cccc(OC)c2)n2c-3cc3cc(-c4cnc([C@@H]5CCCN5C(=O)[C@@H](NC(=O)OC)C(C)C)[nH]4)ccc32)[nH]1)C(C)C (some centres undefined)	UniProt Q5L478	EC90	µM	0.002
